// data source = PubChem BioAssay (Tox21)

Target: Beta-2 adrenergic receptor (Homo sapiens)
Experiment: Adrenergic beta2 receptor (ADRB2) small molecule antagonists, cell-based qHTS assay (AID 1963592); also: nearly all actives have a fitted effect of over 50% in size
Settings: CHO-ADRB2 cells, isoproterenol-stimulated cAMP HTRF ratio, 0.5 h; series mostly up to 92.4 µM
Text: U.S. Tox21 Program National Center for Advancing Translational Sciences [NCATS] Division of Preclinical Innovation [DPI] U.S. Environmental Protection Agency [EPA] National Institutes of Environmental Health Sciences [NIEHS] National Toxicology Program [NTP] U.S. Food and Drug Administration [FDA] […] The principle of cAMP-Gs dynamic assay is based on HTRF technology, which facilitates the fluorescence resonance energy transfer (FRET) between donor Europium cryptate and acceptor d2-labeled cAMP. […]
Inconclusive results are not listed. Active and inactive are the calls of the source. Calls follow the shape of the full dose curve.
Classes used: active, inactive

COC(=O)CSc1cc(N=c2sc(=O)n3n2CCCC3)c(F)cc1Cl : inactive
NCCCN(CCO)CCO : active
NC(=O)n1c(O)c(C(=O)c2cccs2)c2cc(Cl)ccc21 : inactive
[Ca+2] : inactive
O=Cc1ccc(Cl)c([N+](=O)[O-])c1 : inactive
c1cc(N(CC2CO2)CC2CO2)ccc1OCC1CO1 (stereo not given) : inactive
OC/C(Br)=C(\Br)CO : inactive
NC(=S)NC(N)=S : inactive
O=C(O)Cc1ccc(OCCNC[C@H](O)c2ccccc2)cc1 : inactive
Oc1c(Cl)cc(Cl)c2cccnc12 : inactive
COc1ccc(COC=O)cc1 : inactive
S=c1nccc[nH]1 : inactive
CSc1ccc(O)cc1C : inactive
Cc1ccccc1Br : inactive
Cc1ccc(S(=O)(=O)C(I)I)cc1 : inactive
O=S(=O)(O)c1cc(O)ccc1O : inactive
O=C(Oc1ccccc1)Oc1ccccc1 : inactive
O=C1CCc2cc(OCCCCc3nnnn3C3CCCCC3)ccc2N1 : inactive
OCCCCCO : inactive
O=c1[nH]c(=O)n([C@H]2C[C@H](O)[C@@H](CO)O2)cc1C(F)(F)F : inactive
CC(=O)CC(=O)Nc1ccc(S(=O)(=O)O)cc1 : inactive
C[C@@H]1C[C@H]2[C@@H]3C[C@H](F)C4=CC(=O)C=C[C@]4(C)[C@@]3(F)[C@@H](O)C[C@]2(C)[C@@]1(O)C(=O)CO : inactive
CCCCO : inactive
O=[N+]([O-])c1ccc(Cl)cc1Cl : inactive
COc1cc(/C=C/C(=O)CC(=O)/C=C/c2ccc(O)c(OC)c2)ccc1O : inactive
CS(C)=O : inactive
CCc1c(C(=O)NN2CCCCC2)nn(-c2ccc(Cl)cc2Cl)c1-c1ccc(Br)cc1 : inactive
CCOC(=O)C1=C(C)NC(C)=C(C(=O)OCC)C1c1ccccc1/C=C/C(=O)OC(C)(C)C : inactive
CC(C)c1ccc2ncccc2c1 : inactive
Oc1ccc2ccccc2c1 : inactive
O=C1Cc2ccccc2N1c1c(Cl)cccc1Cl : inactive
Cc1cc2cc3c(C)cc(=O)oc3c(C)c2o1 : inactive
C=O : inactive
Cc1ccc2ccc(Cl)cc2n1 : inactive
Cc1ccc(O)c2ncccc12 : inactive
Brc1cc(-c2ccc(Br)c(Br)c2Br)cc(Br)c1Br : inactive
S=C([S-])NCCNC(=S)[S-].[Mn+2] : inactive
C[N+](C)(C)CCOC(N)=O : inactive
CCOC(=O)C(C)Oc1ccc(Oc2nc3ccc(Cl)cc3o2)cc1 (stereo not given) : inactive
CCCCCCCC/C=C\CCCCCCCC(=O)OCCO : inactive
Nc1nc(Cl)nc2c1ncn2[C@H]1C[C@H](O)[C@@H](CO)O1 : inactive
Cc1ccc(C)c([N+](=O)[O-])c1 : inactive
COc1ccc(CCN(C)CCCN2CCc3cc(OC)c(OC)cc3CC2=O)cc1OC : inactive
O=C1NCCN1CCN1CCC(c2cn(-c3ccc(F)cc3)c3ccc(Cl)cc23)CC1 : inactive
CN(C)CC[C@@H](c1ccc(Br)cc1)c1ccccn1 : inactive
CCC(=O)c1ccc2c(c1)N(CCCN(C)C)c1ccccc1S2 : inactive
CSc1ccc2c(c1)C(N1CCN(C)CC1)Cc1ccccc1S2 (stereo not given) : inactive
CC/C(C)=N\O[Si](C)(O/N=C(\C)CC)O/N=C(\C)CC : inactive
CCCCCCCC1CCC(=O)O1 (stereo not given) : inactive
CC1=C(O)C(=O)CO1 : inactive
